# ASSAY NAME: Oral bioavailability in dog
# Assay type: ADME, organism-based, Canis lupus familiaris
# STUDY CONDITIONS: in vivo
PARAMETER MEASURED: bioavailability (%)
Could you give me the number in %? Just the number is fine.

What does the data say about its bioavailability? Entry: CC1(C)CCC(c2ccc(Cl)cc2)=C(CN2CCN(c3ccc(C(=O)NS(=O)(=O)c4ccc(N[C@H](CCN5CCOCC5)CSc5ccccc5)c(S(=O)(=O)C(F)(F)F)c4)cc3)CC2)C1 [NAVITOCLAX]
48

----------
# ASSAY NAME: Half life in po dosed rat by LC-MS/MS analysis
# Assay type: ADME, organism-based
# STUDY CONDITIONS: in vivo
Threshold check on half-life: at or above 4 h gives rule met, strictly below gives rule not met.

Examples with answers:
STRUCTURE SMILES	ASSIGNED CATEGORY
Cc1cc(C(=O)N[C@H]2CCCCC/C=C\[C@@H]3C[C@@]3(C(=O)NS(=O)(=O)C3CC3)NC(=O)[C@@H]3C[C@@H](Oc4nc5ccccc5nc4C(F)(F)F)CN3C2=O)no1	rule not met
Cc1cc(C(=O)N[C@H]2CCCCC/C=C\[C@@H]3C[C@@]3(C(=O)NS(=O)(=O)C3CC3)NC(=O)[C@@H]3C[C@@H](Oc4nc5cc(F)ccc5nc4C(F)(F)F)CN3C2=O)no1	rule not met
Cc1cc(C(=O)N[C@H]2CCCCC/C=C\[C@@H]3C[C@@]3(C(=O)NS(=O)(=O)C3(C)CC3)NC(=O)[C@@H]3C[C@@H](Oc4nc5ccccc5c5ccc(F)cc45)CN3C2=O)no1	rule not met
CC(=O)N(C)[C@@H](CC(C)(C)C)C(=O)N[C@H]1CCCCC/C=C\[C@@H]2C[C@@]2(C(=O)NS(=O)(=O)C2(C)CC2)NC(=O)[C@@H]2C[C@@H](Oc3nc4cc(F)ccc4c4ccccc34)CN2C1=O	rule not met
Cn1ccc(C(=O)N[C@H]2CCCCC/C=C\[C@@H]3C[C@@]3(C(=O)NS(=O)(=O)C3(C)CC3)NC(=O)[C@@H]3C[C@@H](Oc4nc5cc(OC(F)(F)F)ccc5c5ccc(F)cc45)CN3C2=O)n1	rule met

Turning now to a further record.
Please check the record Cc1cc(C(=O)N[C@H]2CCCCC/C=C\[C@@H]3C[C@@]3(C(=O)NS(=O)(=O)C3(C)CC3)NC(=O)[C@@H]3C[C@@H](Oc4nc5cc(F)ccc5nc4C(F)(F)F)CN3C2=O)no1 and state if its half-life is at or above 4 h.
rule met
